- Species on record: Rattus norvegicus
- protocol_summary: DrugMatrix - Regimen: Daily Repeat
- Type: toxicity, organism-based, Sprague-Dawley
- Design: regimen Daily Repeat, gender Male, age 6-8 weeks
- condition_label: in vivo, iv, 0 mg/kg, 120 h, tissue Plasma, dose level Control, time 5 day, vehicle 100 % SALINE
recorded_metric: PHOSPHORUS (mg/dL)
Give the quantity in mg/dL, number only.

Give a short answer stating reported PHOSPHORUS for CC(=O)N[C@@H]1[C@H](Oc2c3cc4cc2Oc2ccc(cc2Cl)[C@@H](O[C@@H]2O[C@@H](CO)[C@@H](O)[C@H](O)[C@@H]2NC(C)=O)[C@@H]2NC(=O)[C@H](NC(=O)[C@@H]4NC(=O)[C@H]4NC(=O)[C@@H](Cc5ccc(c(Cl)c5)O3)NC(=O)[C@H](N)c3ccc(O)c(c3)Oc3cc(O)cc4c3)c3ccc(O)c(c3)-c3c(O[C@H]4O[C@H](CO)[C@@H](O)[C@@H](O)[C@@H]4O)cc(O)cc3[C@@H](C(=O)O)NC2=O)O[C@@H](CO)[C@@H](O)[C@@H]1O . 11.3

Give a short answer stating reported PHOSPHORUS for CCC1=C[C@@H]2CN(C1)Cc1c([nH]c3ccccc13)[C@@](C(=O)OC)(c1cc3c(cc1OC)N(C)[C@H]1[C@@](O)(C(=O)OC)[C@H](OC(C)=O)[C@]4(CC)C=CCN5CC[C@]31[C@@H]54)C2 [VINORELBINE] . 12.05

Give a short answer stating reported PHOSPHORUS for CCc1c2c(nc3ccc(OC(=O)N4CCC(N5CCCCC5)CC4)cc13)-c1cc3c(c(=O)n1C2)COC(=O)[C@]3(O)CC [IRINOTECAN] . 12.63

Give a short answer stating reported PHOSPHORUS for CC[C@]1(O)C[C@@H]2CN(CCc3c([nH]c4ccccc34)[C@@](C(=O)OC)(c3cc4c(cc3OC)N(C)[C@H]3[C@@](O)(C(=O)OC)[C@H](OC(C)=O)[C@]5(CC)C=CCN6CC[C@]43[C@@H]65)C2)C1 [VINBLASTINE] . 11.67

Recorded values, source ChEMBL document CHEMBL3885881.
